- Test system: T-47D breast
- ASSAY REMARKS: NCI tumour cell line growth inhibition, 48 h
Below, each entry is listed with its recorded TGI.
PROPERTY: TGI (µM)

| COMPOUND | READOUT UNIT | RELATION OPERATOR | EXPERIMENTAL RESULT |
| --- | --- | --- | --- |
| FC(F)(F)c1cccc2c(SCCc3n[nH]c(=S)o3)ccnc12 | µM | = | 93.3 |
| N#C/C(=C\c1c(-c2ccccc2)[nH]c2ccccc12)C(=O)c1ccccc1 | µM | > | 100 |
| Cc1cc2oc(C)c(S(=O)(=O)NC(=O)Nc3ccc(Cl)cc3)c(=O)c2c(=O)o1 | µM | > | 100 |
| O=C(COc1cccc(/C=C2\Oc3ccc4ccccc4c3C2=O)c1)c1ccc(Cl)cc1 | µM | = | 52.4 |
| CN[C@@H](C)[C@@H](O)c1ccccc1 | µM | > | 100 |
| C=C1C(=O)OC2/C=C(\CO)CC/C=C(\CO)CC(OC(=O)C(C)C)C12 (stereo unspecified) | µM | = | 24.8 |
| C=C(CNC(=O)c1ccccc1)c1ccc(C(=O)Nc2ccccc2N)cc1 | µM | > | 100 |
| CC(=O)OC(C)(C)CCC(=O)[C@](C)(O)[C@H]1[C@H](O)C[C@@]2(C)[C@@H]3CC=C4C(C)=C(OC5OC(CO)C(O)C(O)C5O)C(=O)C[C@@H]4[C@]3(C)C(=O)C[C@]12C (stereo partly specified) | µM | > | 100 |
| CC(=O)OC(C)c1cc2c(s1)C(=O)c1c(C(C)OC(C)=O)csc1C2=O (stereo unspecified) | µM | = | 5.52 |
| Cc1cc(N2CCCC2)c([N+](=O)[O-])cc1[N+](=O)[O-] | µM | > | 100 |
| CCOC(=O)C(C(=O)OCC)C(=O)c1ccccc1C(=O)c1ccccc1 | µM | > | 100 |
| CN(C)CCNC(=O)c1ccc(Cl)c2cc3ccccc3nc12 | µM | = | 12.1 |
| COC(=O)c1ccccc1C1=C([N+](=O)[O-])C(c2ccccc2)C(C#N)=C(N)O1 (stereo unspecified) | µM | > | 100 |
| CC(C)(C)OC(=O)N1[C@@H]2Cc3ccc(N)cc3[C@@]1(C)c1ccccc12 | µM | = | 70.7 |
| Cc1cc(N(CCCNc2ccnc3cc(Cl)ccc23)Cc2ccc3c(c2)OCO3)nc(N2CCCCC2)n1 | µM | = | 4.82 |
| COc1c2ccsc2c(OC)c2ccsc12 | µM | > | 100 |
| Cc1c2ccccc2c(C)n2c1nc1ccccc12 | µM | = | 89.6 |
| COC(=O)NC(Cc1ccccc1)NC(C)=O (stereo unspecified) | µM | > | 100 |
| Cc1ccc2nc(-c3ccc(N)c4ccccc34)[nH]c2c1 | µM | > | 100 |
| COc1ccc(-c2cc(-c3cccc(NS(C)(=O)=O)c3)nc(N)c2C#N)cc1 | µM | = | 13.7 |
